Measured on: GABA transporter 4 (Mus musculus)
Assay remarks: Inhibition of mouse GAT4 expressed in HEK293 cells assessed as remaining [3H]GABA uptake at 100 uM preincubated for 25 mins followed by [3H]GABA/unlabeled GABA addition measured after 4 mins by liquid scintillation counting analysis
Format: cell-based
Reported Activity values for the following compounds.
Outcome measure: Activity

- Compound: "O=C(O)[C@H]1CNCC[C@H]1CCC#Cc1ccccc1Cc1ccccc1 (racemic)"
  Measured on: "GABA transporter 4 (Mus musculus)"
  Value reported: "63.9%"
- Compound: "CN1CC[C@H](CC/C=C/c2ccccc2-c2ccccc2)[C@@H](C(=O)O)C1 (racemic)"
  Measured on: "GABA transporter 4 (Mus musculus)"
  Value reported: "75.5%"
- Compound: "O=C(O)[C@H]1CNCC[C@@H]1CCC/C=C/c1ccccc1-c1ccccc1 (racemic)"
  Measured on: "GABA transporter 4 (Mus musculus)"
  Value reported: "76.1%"
